cond: in isobutanol, 273.15 K
parameter_measured: solubility (mole fraction)

> print(dat)
                                   compound  quantitative.readout
1  CN1CCOC(c2ccccc2)c2ccccc2C1.Cl (stereo unspecified)              0.000415

* * *

cond: in water, 323.15 K
parameter_measured: solubility (mole fraction)

> print(dat)
                                   compound          parameter.measured   result
1  CN1CCOC(c2ccccc2)c2ccccc2C1.Cl (stereo unspecified)  solubility (mole fraction)  0.00426

* * *

cond: in n-propanol, 323.15 K
parameter_measured: solubility (mole fraction)

> print(dat)
                                   compound  quantitative.readout
1  CN1CCOC(c2ccccc2)c2ccccc2C1.Cl (stereo unspecified)               0.00267
